- Experimental target: CYP1A2 (Homo sapiens, UniProt P05177)
- Sequence (P05177 whole entry): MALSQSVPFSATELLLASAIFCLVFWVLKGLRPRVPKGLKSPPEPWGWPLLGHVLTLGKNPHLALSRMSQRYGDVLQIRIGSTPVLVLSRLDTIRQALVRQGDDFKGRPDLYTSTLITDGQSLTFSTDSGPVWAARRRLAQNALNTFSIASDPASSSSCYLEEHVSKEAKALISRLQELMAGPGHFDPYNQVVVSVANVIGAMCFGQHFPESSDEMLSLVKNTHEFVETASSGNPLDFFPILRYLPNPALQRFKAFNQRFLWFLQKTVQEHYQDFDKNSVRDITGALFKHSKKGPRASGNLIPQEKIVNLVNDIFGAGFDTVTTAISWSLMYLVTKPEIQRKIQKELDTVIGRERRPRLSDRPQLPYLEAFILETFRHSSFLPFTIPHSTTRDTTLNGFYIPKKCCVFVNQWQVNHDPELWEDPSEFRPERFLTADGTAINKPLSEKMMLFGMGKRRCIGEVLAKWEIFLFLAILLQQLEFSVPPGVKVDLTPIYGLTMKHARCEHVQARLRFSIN
- Protocol text: Inhibition of CYP1A2 in human liver microsomes at 10 uM after 20 mins
- Assay type: ADME
Mark label 0 for inhibition at 20 min, 10 µM values under 9%, and label 1 for everything at or above.

Please review the following examples before continuing.
| Smiles | Cat |
| --- | --- |
| O=C(O)CCNc1nc(N2CCc3ccccc3CC2)cc(-n2cc3ccccc3n2)n1 | label 0 |
| O=C(O)CCNc1cc(N2CCc3ccccc3CC2)nc(-c2ccccn2)n1 | label 1 |
| O=C(O)CCNc1nc(N2CCc3ccccc3CC2)cc(-n2cccn2)n1 | label 0 |
| O=C(O)CCNc1nc(N2CCc3ccccc3CC2)cc(-n2ccnn2)n1 | label 0 |

Form field: inhibition at 20 min, 10 µM at least 9%? Entry: `O=C(O)CCNc1nc(N2CCc3ccccc3CC2)cc(-n2nccn2)n1`
label 0

====

Reported inhibition at 20 min, 10 µM values for the following molecules.
- Experimental target: CYP2C19 (Homo sapiens, UniProt P33261)
- Sequence (P33261 whole entry): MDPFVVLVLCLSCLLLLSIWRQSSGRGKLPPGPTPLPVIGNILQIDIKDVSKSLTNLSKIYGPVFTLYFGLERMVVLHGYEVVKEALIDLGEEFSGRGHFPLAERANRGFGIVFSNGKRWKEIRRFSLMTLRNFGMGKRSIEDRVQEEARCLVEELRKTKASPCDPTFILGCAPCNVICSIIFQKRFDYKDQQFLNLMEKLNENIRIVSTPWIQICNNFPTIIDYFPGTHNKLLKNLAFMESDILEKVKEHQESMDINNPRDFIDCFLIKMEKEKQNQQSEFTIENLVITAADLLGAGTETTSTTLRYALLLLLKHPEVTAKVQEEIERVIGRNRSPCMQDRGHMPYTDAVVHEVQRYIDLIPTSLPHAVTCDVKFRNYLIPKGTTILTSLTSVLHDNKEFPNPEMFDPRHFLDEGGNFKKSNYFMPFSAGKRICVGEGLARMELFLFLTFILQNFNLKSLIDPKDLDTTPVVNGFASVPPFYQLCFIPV
- Protocol text: Inhibition of CYP2C19 in human liver microsomes at 10 uM after 20 mins
- Assay type: ADME
Reply with the number and its unit after it.

Here is how some molecules turned out for inhibition at 20 min, 10 µM.
| Smiles | Reported result |
| --- | --- |
| O=C(O)CCNc1nc(N2CCc3ccccc3CC2)cc(-n2nccn2)n1 | 4% |
| O=C(O)CCNc1nc(N2CCc3ccccc3CC2)cc(-n2cc3ccccc3n2)n1 | 11% |
| O=C(O)CCNc1nc(N2CCc3ccccc3CC2)cc(-n2cccn2)n1 | 3% |

Dear colleague, please send me the reported inhibition at 20 min, 10 µM for `O=C(O)CCNc1nc(N2CCc3ccccc3CC2)cc(-n2ccnn2)n1` when you can.
8%

Dear colleague, please send me the reported inhibition at 20 min, 10 µM for `O=C(O)CCNc1cc(N2CCc3ccccc3CC2)nc(-c2ccccn2)n1` when you can.
16%

Dear colleague, please send me the reported inhibition at 20 min, 10 µM for `O=C(O)CCNc1nc(-c2nccs2)cc(N2CCc3ccccc3CC2)n1` when you can.
13%

====

- Experimental target: UniProt:O15054
- Sequence (O15054 whole entry): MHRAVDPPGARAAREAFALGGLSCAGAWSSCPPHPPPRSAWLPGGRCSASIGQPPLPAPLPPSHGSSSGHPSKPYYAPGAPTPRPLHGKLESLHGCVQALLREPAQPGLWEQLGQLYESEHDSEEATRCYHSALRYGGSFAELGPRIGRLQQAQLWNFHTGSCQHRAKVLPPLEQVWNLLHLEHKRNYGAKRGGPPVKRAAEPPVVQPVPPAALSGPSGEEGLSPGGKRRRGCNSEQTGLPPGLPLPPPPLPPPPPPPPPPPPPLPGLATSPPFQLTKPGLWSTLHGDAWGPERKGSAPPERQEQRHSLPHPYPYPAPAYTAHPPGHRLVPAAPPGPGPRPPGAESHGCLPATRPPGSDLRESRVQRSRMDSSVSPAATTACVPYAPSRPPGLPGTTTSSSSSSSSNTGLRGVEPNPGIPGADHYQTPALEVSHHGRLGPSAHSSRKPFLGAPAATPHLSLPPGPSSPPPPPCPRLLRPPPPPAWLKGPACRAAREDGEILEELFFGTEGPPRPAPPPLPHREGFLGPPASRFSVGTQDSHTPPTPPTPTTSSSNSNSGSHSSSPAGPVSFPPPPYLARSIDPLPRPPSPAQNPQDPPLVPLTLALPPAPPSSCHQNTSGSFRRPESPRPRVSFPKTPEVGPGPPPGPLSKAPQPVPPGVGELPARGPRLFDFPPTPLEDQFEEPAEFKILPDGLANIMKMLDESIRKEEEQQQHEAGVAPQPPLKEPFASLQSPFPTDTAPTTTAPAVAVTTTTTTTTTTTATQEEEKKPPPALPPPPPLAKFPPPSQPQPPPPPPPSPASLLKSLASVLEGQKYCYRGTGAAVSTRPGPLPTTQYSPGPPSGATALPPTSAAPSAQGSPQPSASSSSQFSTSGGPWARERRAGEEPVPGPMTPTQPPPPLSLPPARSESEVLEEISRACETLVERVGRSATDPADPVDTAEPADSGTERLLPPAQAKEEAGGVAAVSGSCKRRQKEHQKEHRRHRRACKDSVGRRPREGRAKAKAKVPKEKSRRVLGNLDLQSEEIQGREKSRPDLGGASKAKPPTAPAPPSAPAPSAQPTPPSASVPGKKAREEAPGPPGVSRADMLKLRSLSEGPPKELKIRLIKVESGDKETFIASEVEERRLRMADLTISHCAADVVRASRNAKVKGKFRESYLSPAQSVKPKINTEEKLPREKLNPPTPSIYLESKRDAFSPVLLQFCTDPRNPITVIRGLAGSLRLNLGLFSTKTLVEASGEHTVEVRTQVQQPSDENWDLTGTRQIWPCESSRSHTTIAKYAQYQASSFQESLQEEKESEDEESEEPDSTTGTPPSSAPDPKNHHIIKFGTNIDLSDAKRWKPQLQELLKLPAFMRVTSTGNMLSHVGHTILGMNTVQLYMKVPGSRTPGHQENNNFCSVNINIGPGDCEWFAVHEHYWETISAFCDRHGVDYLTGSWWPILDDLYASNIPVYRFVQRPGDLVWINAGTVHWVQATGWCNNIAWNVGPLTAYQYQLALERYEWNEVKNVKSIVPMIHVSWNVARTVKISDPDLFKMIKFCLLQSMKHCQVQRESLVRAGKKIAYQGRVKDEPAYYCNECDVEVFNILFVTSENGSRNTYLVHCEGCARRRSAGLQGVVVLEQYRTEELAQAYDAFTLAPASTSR
- Protocol text: Inhibition of JMJD3 (unknown origin) using biotinylated H3K27me3 peptide as substrate at 10 uM after 1 hr by AlphaLISA assay
Experimental readout: inhibition (%)
I only need the number, in %, no unit after it.

Here is how some compounds turned out for inhibition.
| Smiles | Experimental target | inhibition [%] |
| --- | --- | --- |
| Cc1ccccc1C1CCN(c2cc(-c3nccs3)nc(NCCC(=O)O)n2)CC1 | UniProt:O15054 | 87.5 |
| O=C(O)CCNc1nc(NC2Cc3ccccc3C2)cc(-c2nccs2)n1 | UniProt:O15054 | 21.1 |

Dear colleague, please send me the reported inhibition for `CC(=O)N1CCN(c2cc(-c3nccs3)nc(NCCC(=O)O)n2)CC1` when you can.
32.9

Dear colleague, please send me the reported inhibition for `O=C(O)CCNc1nc(-c2nccs2)cc(N2CCC(N3CCCC3)CC2)n1` when you can.
-8.4

Dear colleague, please send me the reported inhibition for `O=C(O)CCNc1nc(NCc2cc(C(F)(F)F)cc(C(F)(F)F)c2)cc(-c2nccs2)n1` when you can.
1

Dear colleague, please send me the reported inhibition for `COc1cc(CNc2cc(-c3nccs3)nc(NCCC(=O)O)n2)cc(OC)c1` when you can.
-8.7
